# measured_on: UniProt P42336
# Sequence (P42336 whole entry): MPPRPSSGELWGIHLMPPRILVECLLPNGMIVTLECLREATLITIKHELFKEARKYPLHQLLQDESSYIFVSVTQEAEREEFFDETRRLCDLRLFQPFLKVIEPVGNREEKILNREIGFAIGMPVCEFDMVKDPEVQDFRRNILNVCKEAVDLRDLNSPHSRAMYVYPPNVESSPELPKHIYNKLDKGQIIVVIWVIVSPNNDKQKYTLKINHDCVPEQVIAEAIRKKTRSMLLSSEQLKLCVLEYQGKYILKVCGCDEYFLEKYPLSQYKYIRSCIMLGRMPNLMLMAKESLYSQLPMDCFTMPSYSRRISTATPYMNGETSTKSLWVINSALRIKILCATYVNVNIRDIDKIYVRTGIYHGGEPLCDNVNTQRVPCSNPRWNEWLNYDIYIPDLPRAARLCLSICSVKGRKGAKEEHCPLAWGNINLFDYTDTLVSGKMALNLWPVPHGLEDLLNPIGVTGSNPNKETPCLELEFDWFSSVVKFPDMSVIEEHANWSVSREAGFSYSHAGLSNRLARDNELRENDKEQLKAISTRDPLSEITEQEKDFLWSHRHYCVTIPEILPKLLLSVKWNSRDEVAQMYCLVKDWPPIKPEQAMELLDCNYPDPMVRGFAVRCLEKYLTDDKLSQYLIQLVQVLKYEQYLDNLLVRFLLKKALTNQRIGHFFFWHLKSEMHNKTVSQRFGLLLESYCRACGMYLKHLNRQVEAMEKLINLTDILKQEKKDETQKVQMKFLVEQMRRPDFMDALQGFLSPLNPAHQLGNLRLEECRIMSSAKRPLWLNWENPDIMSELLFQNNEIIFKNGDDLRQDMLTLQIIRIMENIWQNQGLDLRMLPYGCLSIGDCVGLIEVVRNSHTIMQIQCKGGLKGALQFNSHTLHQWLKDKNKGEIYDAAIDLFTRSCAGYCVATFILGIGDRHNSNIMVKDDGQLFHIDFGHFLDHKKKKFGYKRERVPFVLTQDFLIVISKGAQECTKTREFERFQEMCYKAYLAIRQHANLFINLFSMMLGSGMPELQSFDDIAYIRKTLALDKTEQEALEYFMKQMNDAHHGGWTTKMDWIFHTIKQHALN
# Sequence (P27986 whole entry partner): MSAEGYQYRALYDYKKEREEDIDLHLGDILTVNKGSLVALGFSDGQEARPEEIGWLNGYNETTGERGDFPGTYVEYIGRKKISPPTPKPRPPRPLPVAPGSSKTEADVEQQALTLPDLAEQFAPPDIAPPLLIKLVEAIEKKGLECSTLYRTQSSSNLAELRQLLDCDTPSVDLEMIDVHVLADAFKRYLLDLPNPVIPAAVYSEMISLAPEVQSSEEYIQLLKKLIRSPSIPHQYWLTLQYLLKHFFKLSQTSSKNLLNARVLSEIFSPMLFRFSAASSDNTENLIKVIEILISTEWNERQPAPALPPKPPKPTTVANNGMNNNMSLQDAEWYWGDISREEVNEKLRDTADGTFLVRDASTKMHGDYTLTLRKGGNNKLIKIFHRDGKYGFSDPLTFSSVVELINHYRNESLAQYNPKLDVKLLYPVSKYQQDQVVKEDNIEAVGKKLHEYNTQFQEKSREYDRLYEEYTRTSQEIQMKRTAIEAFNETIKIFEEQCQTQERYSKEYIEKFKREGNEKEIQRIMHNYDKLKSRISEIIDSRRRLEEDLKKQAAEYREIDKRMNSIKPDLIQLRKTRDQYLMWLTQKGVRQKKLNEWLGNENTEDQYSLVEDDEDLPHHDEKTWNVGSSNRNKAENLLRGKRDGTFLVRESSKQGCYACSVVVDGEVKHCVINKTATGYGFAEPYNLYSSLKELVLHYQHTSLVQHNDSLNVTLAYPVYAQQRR
# experiment_summary: PI3K ATP depletion assay (Biological Method 1, Assay 3; KinaseGlo luminescence)
# Type: biochemical
# recorded_conditions: ATP depletion assay; read-out: PI3 Kinase Alpha, IC50
Form field: IC50 (one value per entry).

molecule="Nc1ncc(-c2cc(N3CCCC3Cc3ccccc3)nc(N3CCOCC3)n2)cn1 (centres unmarked) [Compound 407]" result_value="< 1 µM"
molecule="CN1CCC(Oc2ccc(Nc3cc(-c4cnc(N)nc4)nc(N4CCOCC4)n3)cn2)C1 (centres unmarked) [Compound 35]" result_value="< 1 µM"
molecule="CC(C)N1CCN(c2nc3ccccc3cc2-c2cc(-c3ccc(N)nc3)nc(N3CCOCC3)n2)CC1 [Compound 502]" result_value="< 10 µM"

Prompt: IC50 for CC(C)OC(=O)N1CC[C@H](Oc2cc(-c3cnc(N)cc3C(F)(F)F)nc(N3CCOCC3)n2)C1 [Compound 534] ?
Response: < 1 µM

Prompt: Thanks! And CC(C)N1CCC(Oc2ccc(Nc3cc(-c4cnc(N)cc4C(F)(F)F)nc(N4CCOCC4)n3)cn2)C1 (centres unmarked) [Compound 93] ?
Response: < 1 µM

Prompt: Thanks! And CC(=O)N1CCC[C@H](Oc2cc(-c3cnc(N)cc3C(F)(F)F)nc(N3CCOCC3)n2)C1 [Compound 455] ?
Response: < 1 µM

Prompt: Thanks! And Nc1cc(F)c(-c2cc(Nc3cnc4ccccc4c3)nc(N3CCOCC3)n2)cn1 [Compound 4] ?
Response: < 1 µM

Prompt: Thanks! And Nc1ncc(-c2cc(N3CCOc4ccccc43)nc(N3CCOCC3)n2)cn1 [Compound 65] ?
Response: < 1 µM

###

Form field: pEC50 (one value per entry).
# Tested on: A2780 ovarian cancer cells
# experiment_summary: Cellular proliferation in A2780 cells, Cell Titer Glo (Biological Method 4)
# Assay type: cell-based
# recorded_conditions: Homo sapiens; ovarian cancer cell line A2780, Biological Method 4
pEC50: −log10 of the molar value.

Prompt: pEC50 for Nc1cc(C(F)(F)F)c(-c2cc(N3CCC(=O)CC3)nc(N3CCOCC3)n2)cn1 ?
Response: > 5.00

Prompt: Thanks! And CC(=O)Nc1ccccc1-c1cc(-c2ccc(N)nc2)nc(N2CCOCC2)n1 ?
Response: > 5.00

Prompt: Thanks! And Nc1ccc(-c2cc(Nc3ccc4c(c3)OCC(=O)N4)nc(N3CCOCC3)n2)cn1 ?
Response: > 5.00

Prompt: Thanks! And COc1ccc2ncc(Nc3cc(-c4cnc(N)nc4)nc(N4CCOCC4)n3)cc2c1 ?
Response: > 6.00

###

# measured_on: UniProt P42336
# experiment_summary: PI3K ATP depletion assay (Biological Method 1, Assay 3; KinaseGlo luminescence)
# Assay type: biochemical
# recorded_conditions: ATP depletion assay; read-out: PI3 Kinase Alpha, IC50
pIC50: −log10 of the molar value.
property_measured: pIC50

// solved cases for pIC50 follow
molecule="COc1cncc(-c2nc(N3CCOCC3)nc(-c3cnc(N)nc3)c2C)c1 [Compound 475]" result_value="> 6.00"
molecule="Nc1ncc(-c2cc(Nc3ccc4c(c3)NC(=O)CO4)nc(N3CCOCC3)n2)cn1 [Compound 413]" result_value="> 6.00"

Prompt: Form field: pIC50 recorded for COC(=O)c1cnc(N2CCOCC2)nc1-c1cnc(N)nc1 [Compound 431] with UniProt P42336 (enter value)
Response: > 6.00

Prompt: Thanks! And CC(C)OC(=O)N1CCC(Oc2cc(-c3cnc(N)nc3N)nc(N3CCOCC3)n2)CC1 [Compound 131] ?
Response: > 6.00

Prompt: Thanks! And Cc1c(Nc2ccc3c(c2)OCCO3)nc(N2CCOCC2)nc1-c1cnc(N)nc1 [Compound 481] ?
Response: > 6.00

Prompt: Thanks! And CN1CCN(C(=O)c2cnc(N3CCOCC3)nc2-c2cnc(N)nc2)CC1 [Compound 428] ?
Response: > 5.00

Prompt: Thanks! And COc1ccc2cc(Nc3cc(-c4ccc(N)nc4)nc(N4CCOCC4)n3)cnc2c1 [Compound 494] ?
Response: > 6.00

###

# System: A2780 ovarian cancer cells
# experiment_summary: Cellular proliferation in A2780 cells, Cell Titer Glo (Biological Method 4)
# Assay type: cell-based
# recorded_conditions: Homo sapiens; ovarian cancer cell line A2780
pEC50: −log10 of the molar value.
Form field: pEC50 (one value per entry).

compound=Cc1cc(Nc2cc(-c3ccc(N)nc3)nc(N3CCOCC3)n2)ccn1 property_measured=pEC50 result_value="> 6.00"
compound=Nc1ccc(-c2cc(Nc3ccncc3)nc(N3CCOCC3)n2)cn1 property_measured=pEC50 result_value="> 6.00"
compound="CC(C)N1CCC(Oc2ccc(Nc3cc(-c4cnc(N)cc4C(F)(F)F)nc(N4CCOCC4)n3)cn2)C1 (stereo not shown)" property_measured=pEC50 result_value="> 6.00"

Field: next compound
Prompt: pEC50 for Nc1cc(C(F)(F)F)c(-c2cc(Nc3ccc4c(c3)OCCO4)nc(N3CCOCC3)n2)cn1 ?
Response: > 4.60

###

Form field: pEC50 (one value per entry).
# Test system: A2780 ovarian cancer cells
# experiment_summary: Cellular proliferation in A2780 cells, Cell Titer Glo (Biological Method 4)
# Assay type: cell-based
# recorded_conditions: Homo sapiens; ovarian cancer cell line A2780, Biological Method 4
pEC50: −log10 of the molar value.

// solved cases for pEC50 follow
compound=CC(C)Oc1ncccc1Nc1cc(-c2cnc(N)cc2C(F)(F)F)nc(N2CCOCC2)n1 result_value="> 4.60"
compound=CC(=O)Nc1cccc(Nc2cc(-c3ccc(N)nc3)nc(N3CCOCC3)n2)c1 result_value="> 5.00"
compound=CC(=O)c1ccc(Nc2cc(-c3ccc(N)nc3)nc(N3CCOCC3)n2)cc1 result_value="> 6.00"
compound=Nc1ncc(-c2cc(-c3cccc4ncccc34)nc(N3CCOCC3)n2)cn1 result_value="> 5.00"
compound=N#Cc1ccc(Nc2cc(-c3cnc(N)cc3C(F)(F)F)nc(N3CCOCC3)n2)cn1 result_value="> 5.00"

Prompt: pEC50 for Cc1c(Nc2ccc(OC(CO)CO)nc2)nc(N2CCOCC2)nc1-c1cnc(N)nc1 ?
Response: > 4.60

Prompt: Thanks! And Nc1ncc(-c2cc(NC(=O)Cc3cccnc3)nc(N3CCOCC3)n2)cn1 ?
Response: > 4.60

Prompt: Thanks! And N#Cc1cccc(Nc2cc(-c3cnc(N)nc3)nc(N3CCOCC3)n2)c1 ?
Response: > 5.00

###

# Tested on: A2780 ovarian cancer cells
# experiment_summary: Cellular proliferation in A2780 cells, Cell Titer Glo (Biological Method 4)
# Type: cell-based
# recorded_conditions: Homo sapiens; ovarian cancer cell line A2780
pEC50: −log10 of the molar value.
property_measured: pEC50

// solved cases for pEC50 follow
molecule=Nc1ccc(-c2cc(Nc3cnc4ccc(OCCN5CCCC5)cc4c3)nc(N3CCOCC3)n2)cn1 property_measured=pEC50 result_value="> 6.00"
molecule=Nc1ncc(-c2cc(Nc3ccc(Oc4cccnc4)nc3)nc(N3CCOCC3)n2)cn1 property_measured=pEC50 result_value="> 6.00"
molecule=Nc1ncc(-c2cc(OC3CCN(C(=O)c4ccccc4)CC3)nc(N3CCOCC3)n2)c(N)n1 property_measured=pEC50 result_value="> 6.00"
molecule=Nc1ccc(-c2cc(Nc3cnc4ccccc4c3)nc(N3CCOCC3)n2)c(F)n1 property_measured=pEC50 result_value="> 6.00"
molecule=COc1cccc2ncc(Nc3cc(-c4cnc(N)cc4C(F)(F)F)nc(N4CCOCC4)n3)cc12 property_measured=pEC50 result_value="> 5.00"

Prompt: Form field: pEC50 recorded for CC(C)N1CCC(Oc2ccc(Nc3cc(-c4cnc(N)cc4C(F)(F)F)nc(N4CCOCC4)n3)cc2)CC1 with A2780 ovarian cancer cells (enter value)
Response: > 5.00

Prompt: Thanks! And Nc1ncc(-c2cc(OC3CCOCC3)nc(N3CCOCC3)n2)cn1 ?
Response: > 6.00

Prompt: Thanks! And Nc1ncc(-c2cc(NC3CC3)nc(N3CCOCC3)n2)cn1 ?
Response: > 5.00

Prompt: Thanks! And CN(C)CCOc1ccc(Nc2cc(-c3cnc(N)nc3)nc(N3CCOCC3)n2)cn1 ?
Response: > 6.00

Prompt: Thanks! And CS(=O)(=O)c1cccc(-c2cc(-c3cnc(N)nc3C(F)(F)F)nc(N3CCOCC3)n2)c1 ?
Response: > 6.00

Prompt: Thanks! And CC(C)(C)OC(=O)N1CCC[C@H](Oc2cc(-c3cnc(N)cc3C(F)(F)F)nc(N3CCOCC3)n2)C1 ?
Response: > 6.00

Prompt: Thanks! And Nc1ncc(-c2cc(Nc3ccc4c(c3)OCCO4)nc(N3CCOCC3)n2)cn1 ?
Response: > 6.00

Prompt: Thanks! And Nc1ncc(-c2cc(Nc3ccncc3C(F)(F)F)nc(N3CCOCC3)n2)cn1 ?
Response: > 6.00

Prompt: Thanks! And Cc1cc(Nc2cc(-c3cnc(N)nc3C(F)(F)F)nc(N3CCOCC3)n2)ccn1 ?
Response: > 6.00
